# Test system: HepG2
# assay procedure: Cancer cell growth inhibition, HepG2
# Type: cell-based, human
# cond: Homo sapiens; HepG2, Liver Cancer, 72 h treatment
# Experimental: Cell culture-based assays were used to evaluate the ability of compounds of the invention to inhibit cancer cell growth inhibition. Cells were obtained from the American Type Culture Collection (ATCC). Cells were cultured at 37° C. with 5% CO2 in the appropriate growth medium (see table below), and harvested respectively during the logarithmic growth period and counted with hemocytometer. The cell viability was over 98% by trypan blue exclusion. […]
pIC50: −log10 of the molar value.
experimental endpoint: pIC50

I = O=C(NO)c1ccc(CNC(=O)c2[nH]c(-c3ccoc3)cc2-c2ccc(O)cc2)cc1 [Example 9]
II = O=C(NO)c1ccc(CNC(=O)c2[nH]c(-c3ccc(O)cc3)cc2-c2ccoc2)cc1 [Example 15]
III = COc1ccc(-c2cc(-c3ccoc3)c(C(=O)NCc3ccc(C(=O)NO)cc3)[nH]2)cc1 [Example 27]
Input line: Order the above compounds by increasing pIC50. Would you mind listing the labels in the order asked for?
Output line: I, II, III
(I: 5.30, II: 5.64, III: 6.30)
